- Test system: PPARg DBDmut IVT, anti-PPARg (DBD mutation: PPARg1 K132A/R137A, NR concentration 270 nM)
- assay.name: PBM binding z-score (relative to random genomic background probes); higher = stronger binding; sequences stand for … in GC…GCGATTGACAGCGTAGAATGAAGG
Decision: PBM binding z-score >= 0.2 yields yes, all other cases yield no.

[
  {
    "residue.string": "ACTGACGGGTCAACGAGGTTATAGCACGCGTATA",
    "measured.on": "PPARg DBDmut IVT, anti-PPARg (DBD mutation: PPARg1 K132A/R137A, NR concentration 270 nM)",
    "label": "yes"
  },
  {
    "residue.string": "GATGCTAGGTCAACTGATGGTCAGCTAAAGCTCG",
    "measured.on": "PPARg DBDmut IVT, anti-PPARg (DBD mutation: PPARg1 K132A/R137A, NR concentration 270 nM)",
    "label": "no"
  },
  {
    "residue.string": "TCAGACAGGTTAAGGTAACTCAGGTACGCAGTCG",
    "measured.on": "PPARg DBDmut IVT, anti-PPARg (DBD mutation: PPARg1 K132A/R137A, NR concentration 270 nM)",
    "label": "no"
  },
  {
    "residue.string": "CATCCAGGGTCAGCTAGGCCAGAGTAGGGACGGC",
    "measured.on": "PPARg DBDmut IVT, anti-PPARg (DBD mutation: PPARg1 K132A/R137A, NR concentration 270 nM)",
    "label": "no"
  },
  {
    "residue.string": "AAACCAAGGTGATCGTGAGGTCGTTGATACTAAC",
    "measured.on": "PPARg DBDmut IVT, anti-PPARg (DBD mutation: PPARg1 K132A/R137A, NR concentration 270 nM)",
    "label": "yes"
  },
  {
    "residue.string": "CAAACTGGGTCAAGGTCAAAGTCGGTTTGTGCCA",
    "measured.on": "PPARg DBDmut IVT, anti-PPARg (DBD mutation: PPARg1 K132A/R137A, NR concentration 270 nM)",
    "label": "yes"
  },
  {
    "residue.string": "TCATATAGGAAAAGGTGAAAGTCGAACGATATGA",
    "measured.on": "PPARg DBDmut IVT, anti-PPARg (DBD mutation: PPARg1 K132A/R137A, NR concentration 270 nM)",
    "label": "yes"
  },
  {
    "residue.string": "CGGCCAAGGTCAATGCTAGGTCAGTGAAAGCATT",
    "measured.on": "PPARg DBDmut IVT, anti-PPARg (DBD mutation: PPARg1 K132A/R137A, NR concentration 270 nM)",
    "label": "no"
  },
  {
    "residue.string": "TCGAGTAGGTTAGTCGGGGCATTCCGCCAACATA",
    "measured.on": "PPARg DBDmut IVT, anti-PPARg (DBD mutation: PPARg1 K132A/R137A, NR concentration 270 nM)",
    "label": "no"
  },
  {
    "residue.string": "CCTTACGGGTCACTCCAGGTTATAGCTTCGGAGT",
    "measured.on": "PPARg DBDmut IVT, anti-PPARg (DBD mutation: PPARg1 K132A/R137A, NR concentration 270 nM)",
    "label": "no"
  },
  {
    "residue.string": "TCATATACGTAAAGGTGAAAGTCGAACGATATGA",
    "measured.on": "PPARg DBDmut IVT, anti-PPARg (DBD mutation: PPARg1 K132A/R137A, NR concentration 270 nM)",
    "label": "yes"
  },
  {
    "residue.string": "TCAGACAGGCGAAGGTAACTCAGGTACGCAGTCG",
    "measured.on": "PPARg DBDmut IVT, anti-PPARg (DBD mutation: PPARg1 K132A/R137A, NR concentration 270 nM)",
    "label": "no"
  },
  {
    "residue.string": "CCGCCTAGGTCAGGGCCAGTATAGGAGGAACGTT",
    "measured.on": "PPARg DBDmut IVT, anti-PPARg (DBD mutation: PPARg1 K132A/R137A, NR concentration 270 nM)",
    "label": "no"
  },
  {
    "residue.string": "GCTAGTTGGTCAGTAAAAGGTCAAACACCGGTCG",
    "measured.on": "PPARg DBDmut IVT, anti-PPARg (DBD mutation: PPARg1 K132A/R137A, NR concentration 270 nM)",
    "label": "yes"
  },
  {
    "residue.string": "CTAACTAGGTCATCCAGGACAGTGAATACATTGA",
    "measured.on": "PPARg DBDmut IVT, anti-PPARg (DBD mutation: PPARg1 K132A/R137A, NR concentration 270 nM)",
    "label": "yes"
  },
  {
    "residue.string": "CCAAACAGGTGAGAAGGTAACTCAGCCTCGATTA",
    "measured.on": "PPARg DBDmut IVT, anti-PPARg (DBD mutation: PPARg1 K132A/R137A, NR concentration 270 nM)",
    "label": "no"
  },
  {
    "residue.string": "CCTGCTAGGTCATGGTCACCTAATCTACAGTATG",
    "measured.on": "PPARg DBDmut IVT, anti-PPARg (DBD mutation: PPARg1 K132A/R137A, NR concentration 270 nM)",
    "label": "yes"
  },
  {
    "residue.string": "ATATGTAGGTTACATCCGGGTCATACAGGCTATG",
    "measured.on": "PPARg DBDmut IVT, anti-PPARg (DBD mutation: PPARg1 K132A/R137A, NR concentration 270 nM)",
    "label": "yes"
  },
  {
    "residue.string": "CATAGAGGGTCAGCTAGGCCAGAGTAGGGACGGC",
    "measured.on": "PPARg DBDmut IVT, anti-PPARg (DBD mutation: PPARg1 K132A/R137A, NR concentration 270 nM)",
    "label": "yes"
  },
  {
    "residue.string": "AGAACGAGGGCAATGAGCTGATAGCACGGGTGGC",
    "measured.on": "PPARg DBDmut IVT, anti-PPARg (DBD mutation: PPARg1 K132A/R137A, NR concentration 270 nM)",
    "label": "no"
  },
  {
    "residue.string": "TCATATAGGTAAAGGGGAAAGTCGAACGATATGA",
    "measured.on": "PPARg DBDmut IVT, anti-PPARg (DBD mutation: PPARg1 K132A/R137A, NR concentration 270 nM)",
    "label": "yes"
  },
  {
    "residue.string": "AATACATGGTCATCGTAGGCCAGAGTACGCACAG",
    "measured.on": "PPARg DBDmut IVT, anti-PPARg (DBD mutation: PPARg1 K132A/R137A, NR concentration 270 nM)",
    "label": "yes"
  },
  {
    "residue.string": "CCGAGTAGGTTTTGGGGCATTCAGGCAACGGTGA",
    "measured.on": "PPARg DBDmut IVT, anti-PPARg (DBD mutation: PPARg1 K132A/R137A, NR concentration 270 nM)",
    "label": "no"
  },
  {
    "residue.string": "CCTGATAGGTCAATGGTCAGCTAAAGCAGCTCGC",
    "measured.on": "PPARg DBDmut IVT, anti-PPARg (DBD mutation: PPARg1 K132A/R137A, NR concentration 270 nM)",
    "label": "no"
  },
  {
    "residue.string": "TCTAGTTGGTCACGGCGGTCACACACGACGGGTA",
    "measured.on": "PPARg DBDmut IVT, anti-PPARg (DBD mutation: PPARg1 K132A/R137A, NR concentration 270 nM)",
    "label": "yes"
  },
  {
    "residue.string": "ATGTGTAGGTTAAGGGTCATTCAGGTTGGTTCGC",
    "measured.on": "PPARg DBDmut IVT, anti-PPARg (DBD mutation: PPARg1 K132A/R137A, NR concentration 270 nM)",
    "label": "yes"
  },
  {
    "residue.string": "CCTTACGGGTCACTGACAGGTTACAGCATTTGGA",
    "measured.on": "PPARg DBDmut IVT, anti-PPARg (DBD mutation: PPARg1 K132A/R137A, NR concentration 270 nM)",
    "label": "no"
  },
  {
    "residue.string": "GCAGACAGGTGAAACGCAGGTAACTCTGGGTGGC",
    "measured.on": "PPARg DBDmut IVT, anti-PPARg (DBD mutation: PPARg1 K132A/R137A, NR concentration 270 nM)",
    "label": "no"
  },
  {
    "residue.string": "CTACCAAGGTGAACAAGGTGGTTGATTACTATTC",
    "measured.on": "PPARg DBDmut IVT, anti-PPARg (DBD mutation: PPARg1 K132A/R137A, NR concentration 270 nM)",
    "label": "no"
  },
  {
    "residue.string": "ATCCCTAGGTAAGACTCAGTTCAGTGAAGAACGC",
    "measured.on": "PPARg DBDmut IVT, anti-PPARg (DBD mutation: PPARg1 K132A/R137A, NR concentration 270 nM)",
    "label": "yes"
  },
  {
    "residue.string": "TATACAGGGTCAAAGGCCAGACTACGAATGTCGA",
    "measured.on": "PPARg DBDmut IVT, anti-PPARg (DBD mutation: PPARg1 K132A/R137A, NR concentration 270 nM)",
    "label": "yes"
  },
  {
    "residue.string": "CGAACGAGGGCATGAGTTGATATCAAATGCCGAT",
    "measured.on": "PPARg DBDmut IVT, anti-PPARg (DBD mutation: PPARg1 K132A/R137A, NR concentration 270 nM)",
    "label": "no"
  },
  {
    "residue.string": "CGTCCAAGGTCAATGCTAGGTCAGCGAAAGCATT",
    "measured.on": "PPARg DBDmut IVT, anti-PPARg (DBD mutation: PPARg1 K132A/R137A, NR concentration 270 nM)",
    "label": "yes"
  }
]
